Source of measurements: ChEMBL document CHEMBL1136659

Test: Inhibition of DiTc binding to Kv1.x channel in human brain membranes
Format: cell membranes, Membrane
pIC50: −log10 of the molar value.
Assay endpoint: pIC50

Use these answered entries as a reference point.
CNC(=O)O[C@H]1CC[C@](CNC(=O)c2ccccc2OC)(c2ccccc2)CC1    6.98
C=CCNC(=O)N[C@H]1CC[C@@](CNC(=O)c2ccccc2OC)(c2ccccc2)CC1    6.92
CCCNC(=O)O[C@H]1CC[C@@](CNC(=O)c2ccccc2OC)(c2ccccc2)CC1    7.52

(1) CCCNC(=O)O[C@H]1CC[C@](CNC(=O)c2ccccc2OC)(c2ccccc2)CC1
(2) C=CCNC(=O)O[C@H]1CC[C@](CNC(=O)c2ccccc2OC)(c2ccccc2)CC1
(3) CNC(=O)O[C@H]1CC[C@@](CNC(=O)c2ccccc2OC)(c2ccccc2)CC1
Query string: Order field: pIC50 | Direction: descending (largest first) Put the labels in the order asked and list them.
Result string: 3, 1, 2

----------
Biological target: Potassium voltage-gated channel subfamily A member 3 (Homo sapiens, UniProt P22001)
Sequence (P22001 whole entry): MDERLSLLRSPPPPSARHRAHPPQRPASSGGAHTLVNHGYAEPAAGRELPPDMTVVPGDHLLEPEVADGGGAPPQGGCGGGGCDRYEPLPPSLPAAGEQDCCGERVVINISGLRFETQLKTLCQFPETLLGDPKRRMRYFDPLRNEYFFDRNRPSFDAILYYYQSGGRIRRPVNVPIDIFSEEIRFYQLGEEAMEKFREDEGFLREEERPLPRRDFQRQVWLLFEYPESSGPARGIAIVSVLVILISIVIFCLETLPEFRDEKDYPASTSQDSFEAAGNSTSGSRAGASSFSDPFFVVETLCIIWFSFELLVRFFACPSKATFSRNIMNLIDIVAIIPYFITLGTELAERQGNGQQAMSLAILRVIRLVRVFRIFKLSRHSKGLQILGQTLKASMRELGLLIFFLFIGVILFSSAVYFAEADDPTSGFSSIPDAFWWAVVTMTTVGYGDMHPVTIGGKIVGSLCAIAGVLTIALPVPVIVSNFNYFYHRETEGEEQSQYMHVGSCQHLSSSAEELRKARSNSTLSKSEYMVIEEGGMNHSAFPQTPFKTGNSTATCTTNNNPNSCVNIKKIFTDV
Assay: Inhibition of Kv1.3 ion channel. Measured in the Rb_Kv assay: [86Rb+] efflux from CHO cells stably transfected with Kv1.3 channel.
Assay type: functional, cell-based
pIC50: −log10 of the molar value.
Assay endpoint: pIC50

COc1ccccc1C(=O)NC[C@]1(c2ccccc2)CC[C@H](OC(=O)NCCc2ccccc2)CC1    6.38
C/C=C/C(=O)N[C@H]1CC[C@](CNC(=O)c2ccccc2OC)(c2ccccc2)CC1    7.00
C/C=C/C(=O)N[C@H]1CC[C@@](CNC(=O)c2ccccc2OC)(c2ccccc2)CC1    6.36
C=CCN(C)C(=O)N[C@H]1CC[C@](CNC(=O)c2ccccc2OC)(c2ccccc2)CC1    6.71
C=C(C)CNC(=O)O[C@H]1CC[C@@](CNC(=O)c2ccccc2OC)(c2ccccc2)CC1    7.05
COc1ccccc1C(=O)NC[C@]1(c2ccccc2)CC[C@@H](OC(=O)NCc2ccccc2)CC1    5.77
COc1ccccc1C(=O)NC[C@]1(c2ccccc2)CC[C@H](NC(=O)Cc2ccccc2)CC1    6.89
C=CCNC(=O)O[C@H]1CC[C@@](CNC(=O)c2cccc(Cl)c2OC)(c2ccccc2)CC1    5.08

(I) C=CCNC(=O)O[C@H]1CC[C@@](CNC(=O)c2cccc3c2OCC3)(c2ccccc2)CC1
(II) CCCCNC(=O)O[C@H]1CC[C@@](CNC(=O)c2ccccc2OC)(c2ccccc2)CC1
Query string: I or II : whose pIC50 is greater? Please indicate the selected item by its label.
Result string: II
(II: 7.05, I: 5.43)

(I) C=CCOC(=O)O[C@H]1CC[C@](CNC(=O)c2ccccc2OC)(c2ccccc2)CC1
(II) C=CCN(CC=C)C(=O)O[C@H]1CC[C@@](CNC(=O)c2ccccc2OC)(c2ccccc2)CC1
Query string: When the recorded pIC50 values are compared, which is smaller: that of I or that of II ? Bench note: the answer is the label of the chosen record.
Result string: II

----------
Target: Potassium voltage-gated channel subfamily A member 3 (Homo sapiens)
Assay: Inhibition of Kv1.3 ion channel. Measured in the Rb_Kv assay: [86Rb+] efflux from CHO cells stably transfected with Kv1.3 channel.
Assay type: functional, cell-based
Assay endpoint: IC50 (nM)

Completed entries (count: 3):
COc1ccccc1C(=O)NC[C@]1(c2ccccc2)CC[C@@H](NC(=O)CCc2ccccc2)CC1    570
CCCCNC(=O)O[C@H]1CC[C@](CNC(=O)c2ccccc2OC)(c2ccccc2)CC1    140
COc1ccccc1C(=O)NC[C@]1(c2ccccc2)CC[C@@H](NC(=O)SC)CC1    150

(I) COc1ccccc1C(=O)NC[C@]1(c2ccccc2)CC[C@H](OC(=O)Nc2ccccc2)CC1
(II) COc1ccccc1C(=O)NC[C@]1(c2ccccc2)CC[C@@H](OC(=O)NCCO)CC1
(III) CCOc1ccccc1C(=O)NCC1(c2ccccc2)CCC(=O)CC1
Query string: List from greatest to least IC50. Field: ranking. Enter the labels in the order requested.
Result string: III, II, I

(P) C=C(C)CNC(=O)O[C@H]1CC[C@](CNC(=O)c2ccccc2OC)(c2ccccc2)CC1
(Q) COc1ccccc1C(=O)NCC1(c2ccccc2)CCC(=O)CC1
Query string: For P and Q , which recorded IC50 is lower? Returns: label corresponding to the selected item.
Result string: P

(I) COc1ccccc1C(=O)NC[C@]1(c2ccccc2)CC[C@@H](NC(=O)c2ccccc2Br)CC1
(II) C=CCNC(=O)O[C@H]1CC[C@@](CNC(=O)c2cc(F)ccc2O)(c2ccccc2)CC1
Query string: # query: argmin of IC50 over I and II Refer to your chosen entry by its label in the reply.
Result string: II
(II: 140 nM, I: 2790 nM)

(P) COc1ccccc1C(=O)NC[C@]1(c2ccccc2)CC[C@@H](NC(=O)C=C(C)C)CC1
(Q) COc1ccccc1C(=O)NC[C@]1(c2ccccc2)CC[C@H](OC(=O)NCCO)CC1
Query string: // pick larger IC50 from pair: P vs Q Please reply using the label of the selected record.
Result string: P

(1) CNc1ccccc1C(=O)NCC1(c2ccccc2)CCC(=O)CC1
(2) COCCNC(=O)O[C@H]1CC[C@@](CNC(=O)c2ccccc2OC)(c2ccccc2)CC1
Query string: Of the pair 1 and 2 , name the member with the lesser recorded IC50. Selection: enter the item's label.
Result string: 2

----------
Molecular target: Potassium voltage-gated channel subfamily A member 3 (Homo sapiens, UniProt P22001)
Assay: Inhibition of Kv1.3 ion channel. Measured in the Rb_Kv assay: [86Rb+] efflux from CHO cells stably transfected with Kv1.3 channel.
Format: functional, cell-based
pIC50: −log10 of the molar value.
Assay endpoint: pIC50

COc1ccc(C(=O)NCC2(c3ccccc3)CCC(=O)CC2)cc1    5.00
C=CCNC(=O)O[C@H]1CC[C@@](CNC(=O)c2cccnc2OC)(c2ccccc2)CC1    6.49
COc1ccccc1C(=O)NC[C@]1(c2ccccc2)CC[C@H](OC(=O)NC(C)C)CC1    6.89

(a) COc1ccccc1C(=O)NC[C@]1(c2ccccc2)CC[C@@H](NC(C)=O)CC1
(b) COC(=O)N[C@H]1CC[C@@](CNC(=O)c2ccccc2OC)(c2ccccc2)CC1
Query string: Smaller pIC50 value? Options are a and b The response must carry the label of the picked entry.
Result string: a

----------
Molecular target: UniProt:P22001
Test: Inhibition of DiTc binding to Kv1.3 channel in human brain membranes
Type: cell membranes, Membrane
pIC50: −log10 of the molar value.
Assay endpoint: pIC50

Example entries and their recorded answers appear below.
C=CCOC(=O)N[C@H]1CC[C@](CNC(=O)c2ccccc2OC)(c2ccccc2)CC1    7.14
CCCNC(=O)O[C@H]1CC[C@@](CNC(=O)c2ccccc2OC)(c2ccccc2)CC1    8.30
CCCNC(=O)O[C@H]1CC[C@](CNC(=O)c2ccccc2OC)(c2ccccc2)CC1    7.10
CNC(=O)O[C@H]1CC[C@](CNC(=O)c2ccccc2OC)(c2ccccc2)CC1    7.00

(A) C=CCNC(=O)O[C@H]1CC[C@@](CNC(=O)c2ccccc2OC)(c2ccccc2)CC1
(B) C=CCNC(=O)N[C@H]1CC[C@](CNC(=O)c2ccccc2OC)(c2ccccc2)CC1
(C) C=CCNC(=O)O[C@H]1CC[C@](CNC(=O)c2ccccc2OC)(c2ccccc2)CC1
(D) CNC(=O)O[C@H]1CC[C@@](CNC(=O)c2ccccc2OC)(c2ccccc2)CC1
(E) C=CCNC(=O)N[C@H]1CC[C@@](CNC(=O)c2ccccc2OC)(c2ccccc2)CC1
Query string: # rank by pIC50, ascending (min first) Reply: labels, ordered per the request.
Result string: C, B, E, A, D
(C: 6.85, B: 7.10, E: 7.54, A: 7.74, D: 8.30)

----------
Assay: Inhibition of DiTc binding to Kv1.x channel in human brain membranes
Format: cell membranes, Membrane
pIC50: −log10 of the molar value.
Assay endpoint: pIC50

C=CCNC(=O)O[C@H]1CC[C@@](CNC(=O)c2ccccc2OC)(c2ccccc2)CC1    6.95

(I) C=CCNC(=O)N[C@H]1CC[C@](CNC(=O)c2ccccc2OC)(c2ccccc2)CC1
(II) C=CCOC(=O)N[C@H]1CC[C@](CNC(=O)c2ccccc2OC)(c2ccccc2)CC1
Query string: Please tell me which of the two, I or II , has the higher reported pIC50 value. Provide the label of your selected option as the answer.
Result string: II
(II: 7.17, I: 6.90)

----------
Biological target: Potassium voltage-gated channel subfamily A member 3 (Homo sapiens, UniProt P22001)
Experiment: Inhibition of Kv1.3 ion channel. Measured in the Rb_Kv assay: [86Rb+] efflux from CHO cells stably transfected with Kv1.3 channel.
Assay type: functional, cell-based
Assay endpoint: IC50 (nM)

Solved entries:
COc1ccccc1C(=O)NC[C@]1(c2ccccc2)CC[C@@H](OC(=O)NC(C)C)CC1    75
C=CCNC(=O)O[C@H]1CC[C@@](CNC(=O)c2cccc(Cl)c2O)(c2ccccc2)CC1    7200
C=CCNC(=O)O[C@H]1CC[C@@](CNC(=O)c2cc(Cl)ccc2OC)(c2ccccc2)CC1    230
COCCCNC(=O)O[C@H]1CC[C@@](CNC(=O)c2ccccc2OC)(c2ccccc2)CC1    145
C=CCN(C)C(=O)O[C@H]1CC[C@](CNC(=O)c2ccccc2OC)(c2ccccc2)CC1    145

(I) COc1ccccc1C(=O)NC[C@]1(c2ccccc2)CC[C@@H](NC(=O)c2ccccc2)CC1
(II) COc1ccccc1C(=O)NC[C@]1(c2ccccc2)CC[C@H](OC(=O)NCc2ccccc2)CC1
(III) COc1ccccc1C(=O)NC[C@]1(c2ccccc2)CC[C@H](OC(=O)NCCCc2ccccc2)CC1
Query string: Sort by IC50, descending. Kindly provide the labels arranged according to the requested ordering.
Result string: I, III, II
(I: 1560 nM, III: 535 nM, II: 245 nM)

(A) C=CCN(CC=C)C(=O)O[C@H]1CC[C@](CNC(=O)c2ccccc2OC)(c2ccccc2)CC1
(B) COCCCNC(=O)O[C@H]1CC[C@](CNC(=O)c2ccccc2OC)(c2ccccc2)CC1
Query string: Higher IC50: A or B ? Could you answer with the label of the item you picked?
Result string: A
(A: 205 nM, B: 130 nM)
